The threshold is inclusive: pKa of exactly 9 counts as true (1); values below receive false (0).

Asked: Entry CCN(CC)C(=O)Nc1ccc(OCC(O)CNC)c(C(C)=O)c1 (centres undefined) : is its pKa no less than 9?
Given back: true (1)

Asked: Item CC(C)(C)NCC(O)COc1ccccc1C1CCCC1 (centres undefined) with pKa of 9 or above?
Given back: true (1)

Asked: Decide: is the reported value of pKa for `CCCCC[C@H](O)/C=C/[C@H]1[C@H](CCCCCCC(=O)O)C(=O)C[C@@H]1O` equal to or greater than 9?
Given back: false (0)

Asked: Hello, I need to know if NC(CC(=O)O)C(=O)O (centres undefined) has measured pKa not below 9. Thanks!
Given back: true (1)

Asked: Does CN(C)CCOC1(c2ccccc2)CC2CCC1(C)C2(C)C (centres undefined) have a reported pKa of at least 9?
Given back: true (1)

Asked: Is pKa for `CCCCC[C@H](O)/C=C/[C@H]1[C@H](C/C=C/CCCC(=O)O)C(=O)C[C@@H]1O` at or above 9?
Given back: false (0)

Asked: Exam item: decide whether the reported pKa for `CC1(C)S[C@@H]2[C@@H](NC(=O)[C@H](N)c3ccc(O)cc3)C(=O)N2[C@H]1C(=O)O` is at least 9.
Given back: false (0)

====

Readout Type: pKa
// response body must contain only the number

Asked: Requested read-out: pKa. Entry: `CC(C)n1c(/C=C/[C@H](O)C[C@H](O)CC(=O)O)c(-c2ccc(F)cc2)c2ccccc21`
Given back: 4.31

Asked: Entry COC1C(OC(C)=O)CC(=O)OC(C)CC2OC2/C=C/C(=O)C(C)CC(CC=O)C1OC1OC(C)C(O)C(N(C)C)C1O (stereo not drawn) has what pKa?
Given back: 8.44

Asked: // pKa lookup, key: `CN/C(=C\[N+](=O)[O-])NCCSCc1ccc(CN(C)C)o1`
Given back: 8.31

Asked: Record request: pKa value, item CC(Cc1ccc(C(C)(C)C)cc1)CN1CC(C)OC(C)C1 (stereo not drawn)
Given back: 7.34

Asked: Given `CC[C@H]1OC(=O)[C@@H](C)[C@H](O[C@@H]2C[C@](C)(OC)[C@@H](O)[C@@H](C)O2)[C@@H](C)[C@@H](O[C@@H]2O[C@H](C)C[C@@H](N(C)C)[C@@H]2O)[C@](C)(O)C[C@@H](C)/C(=N/OCOCCOC)[C@@H](C)[C@@H](O)[C@]1(C)O` , state its recorded pKa.
Given back: 9.27

Asked: I have this compound here, `COc1ccc([C@@H]2Sc3ccccc3N(CCN(C)C)C(=O)[C@@H]2OC(C)=O)cc1` , and I need its recorded pKa.
Given back: 8.02

Asked: Look at this compound and give its reported pKa. CCC1OC(=O)CC(O)C(C)C(CC=O)(OC2OC(C)CC(N(C)C)C2O)CC(C)C(=O)C=CC(C)=CC1C (stereo not drawn)
Given back: 8.83

Asked: Which pKa is listed for NC(Cc1c[nH]c2ccccc12)C(=O)NC(Cc1c[nH]c2ccccc12)C(=O)O (stereo not drawn) ?
Given back: 3.38

====

Please respond with reported pKa for every item in the list.
Please reply with the value in numeric form only.

Asked: # lookup: pKa of `CCCN(CCC)S(=O)(=O)c1ccc(C(=O)O)cc1`
Given back: 3.01

Asked: // pKa lookup, key: CCC1OC(=O)CC(O)C(C)C(OC2OC(C)C(O)C(N(C)C)C2O)C(CC=O)CC(C)C(=O)C=CC(C)=CC1COC1OC(C)C(O)C(OC)C1CC (configuration not stated)
Given back: 8.36

Asked: Could you tell me which pKa is on file for Cc1cc(=O)oc2cc(C3OC(C(=O)O)C(O)C(O)C3O)ccc12 (configuration not stated) ?
Given back: 2.82

Asked: Which pKa value belongs to CCC1OC(=O)CC(O)CC(OC2OC(C)CC(N(C)C)C2O)C(CC=O)CC(C)C(=O)C=CC2OC2C1C (configuration not stated) ?
Given back: 8.79

Asked: Reported pKa, molecule `CC[C@H]1OC(=O)[C@@H](C)[C@H](O[C@H]2C[C@](C)(OC)[C@H](O)[C@@H](C)O2)[C@@H](C)[C@@H](O[C@@H]2O[C@H](C)C[C@@H](N(C)C)[C@@H]2O)[C@](C)(O)C[C@@H](C)C(=O)[C@@H](C)[C@@H](O)[C@]1(C)O` : ____
Given back: 8.8

Asked: Would you mind telling me what pKa value was observed for CC(=O)Oc1c(C)cc(OCC(O)CNC(C)C)c(C)c1C (configuration not stated) ?
Given back: 9.54

Asked: Would you kindly share the measured pKa for `COc1ccc2c3c1O[C@H]1[C@@H](O)C=C[C@H]4[C@@H](C2)NCC[C@@]341` ?
Given back: 9.23

Asked: For CN[C@H]1C(O)O[C@H](CO)[C@@H](O)[C@@H]1O (some centres not stated) , what is its reported pKa?
Given back: 9.6

Asked: Look up pKa for this molecule: `CC(C)(C)NC[C@H](O)COc1nsnc1N1CCOCC1`
Given back: 9.53

Asked: So what does the record say about pKa for NC(Cc1c[nH]c2ccccc12)C(=O)NC(Cc1ccccc1)C(=O)O (configuration not stated) ?
Given back: 3.18

Asked: # query: pKa of entry C=CCOc1ccccc1OCC(O)CNC(C)C (configuration not stated)
Given back: 9.57

Asked: # get_value(readout='pKa', item= CC(C)(C)c1ccc(C(O)CCCN2CCC(C(O)(c3ccccc3)c3ccccc3)CC2)cc1 (configuration not stated) )
Given back: 9.86

Asked: Would you kindly share the measured pKa for `CCN(CC)CCOC(=O)c1ccc(N)cc1` ?
Given back: 9.04

Asked: Name the reported pKa value associated with the molecule CC(C)NCC(O)COc1cccc2[nH]c3ccccc3c12 (configuration not stated)
Given back: 9.52

Asked: Quick check: pKa of COC1CC(OC2C(C)C(O)OC(C)C(C)C(O)C(C)C(=O)C3(CO3)CC(C)C(OC3OC(C)CC(N(C)C)C3O)C2C)OC(C)C1O (configuration not stated) ?
Given back: 8.84

Asked: Given the molecule `CO[C@H]1[C@@H](O[C@@H]2O[C@H](C)[C@@H](O[C@H]3C[C@@](C)(O)[C@@H](O[C@@H](O)CC(C)C)[C@H](C)O3)[C@@H](N(C)C)[C@H]2O)[C@@H](CCO)C[C@@H](C)[C@H](O)CC[C@@H]2O[C@H]2C[C@@H](C)O[C@@H](O)C[C@H]1O[C@H](C)O` , what is its reported pKa?
Given back: 7.61

Asked: Can you look up the measured pKa of `O=C1CC2(CCCC2)CC(=O)N1CCCCN1CCN(c2ncccn2)CC1` for me?
Given back: 7.6
